- target-or-test-system: NRAS Q61R (Homo sapiens (Human), UniProt P01111+P62937, Q61R)
- Sequence (P01111 whole entry Q61R): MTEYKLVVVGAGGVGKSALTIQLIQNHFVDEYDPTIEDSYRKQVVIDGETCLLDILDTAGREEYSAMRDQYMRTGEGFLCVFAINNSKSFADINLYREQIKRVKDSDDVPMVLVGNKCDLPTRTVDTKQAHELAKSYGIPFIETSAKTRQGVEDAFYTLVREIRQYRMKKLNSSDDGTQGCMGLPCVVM
- Sequence (P62937 whole entry): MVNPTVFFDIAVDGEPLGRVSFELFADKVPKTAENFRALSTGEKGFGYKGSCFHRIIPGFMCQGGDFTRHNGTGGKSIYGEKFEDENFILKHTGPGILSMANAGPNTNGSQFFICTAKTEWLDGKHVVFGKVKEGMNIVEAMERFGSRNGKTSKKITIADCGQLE
- assay-protocol: Ras-Raf (BRAF RBD) disruption / FRET / MOA assay, NRAS Q61R
- Format: biochemical
- experimental-parameters: NRAS Q61R; Ras-Raf disruption/FRET/MOA assay; read-out: IC50* NRAS Q61R FRET data
measurement-type: IC50

compound: C=C(OC)C(=O)N1CC2(CCN(C(=O)N(C)[C@H](C(=O)N[C@H]3Cc4nc(cs4)-c4ccc5c(c4)c(c(-c4cccnc4[C@H](C)OC)n5CC)CC(C)(C)COC(=O)[C@@H]4CCCN(N4)C3=O)C(C)C)CC2)C1 (atropisomer, axis not shown)
IC50: 100 to 1000 nM

Please examine the following record next.
Consider the compound C=CC(=O)N1CC[C@H](C(=O)N(C)[C@H](C(=O)N[C@H]2CC3=NN=C(O3)c3ccc4c(c3)c(c(-c3cccnc3[C@H](C)OC)n4CC)CC(C)(C)COC(=O)[C@@H]3CCCN(N3)C2=O)C(C)C)C1 (atropisomer, axis not shown) and give its measured IC50.
> 10000 nM

----------
- target-or-test-system: KRAS WT (Homo sapiens (Human), UniProt P01116+P62937)
- Sequence (P01116-2 other isoform, or with tags, fused parts or gaps): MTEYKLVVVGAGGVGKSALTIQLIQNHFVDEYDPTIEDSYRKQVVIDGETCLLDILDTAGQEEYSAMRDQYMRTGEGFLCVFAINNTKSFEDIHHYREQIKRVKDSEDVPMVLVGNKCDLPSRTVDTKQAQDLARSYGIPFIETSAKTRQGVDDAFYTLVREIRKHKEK
- Sequence (P62937 whole entry): as the sequence (P62937 whole entry) above
- assay-protocol: Ras-Raf (BRAF RBD) disruption / FRET / MOA assay, KRAS WT
- Type: biochemical
- experimental-parameters: read-out: IC50* KRAS WT FRET data
- Method: The purpose of this biochemical assay is to measure the ability of test compounds to facilitate ternary complex formation between a nucleotide-loaded Ras isoform and cyclophilin A; the resulting ternary complex disrupts binding to a BRAF^RBD construct, inhibiting Ras signaling through a RAF effector. Compound is present in plate wells as a 10-point 3-fold dilution series starting at a final concentration of 30 μM. […]
pIC50: −log10 of the molar value.
measurement-type: pIC50

molecule: C=CC(=O)N1CCN(C(=O)N(C)[C@H](C(=O)N[C@H]2Cc3nc(cs3)-c3ccc4c(c3)c(c(-c3cccnc3[C@H](C)OC)n4CC)CC(C)(C)COC(=O)[C@@H]3CCCN(N3)C2=O)C(C)C)[C@@H]2C[C@@H]21 (atropisomer, axis not shown) [Example A736]
target-or-test-system: KRAS WT (Homo sapiens (Human), UniProt P01116+P62937)
measured-result: 7.00 to 8.00

Then there is this molecule:
Sample C=CC(=O)N1CCO[C@H]2CN(C(=O)N(C)[C@H](C(=O)N[C@H]3Cc4cccc(n4)-c4ccc5c(c4)c(c(-c4cccnc4[C@H](C)OC)n5CC(F)(F)F)CC(C)(C)COC(=O)[C@@H]4CCCN(N4)C3=O)C(C)C)C[C@H]21 (atropisomer, axis not shown) [Example A595] — what was its pIC50?
6.00 to 7.00

----------
- target-or-test-system: K-Ras G12C (Homo sapiens (Human), UniProt P01116+P62937, G12C)
- Sequence (P01116-2 other isoform, or with tags, fused parts or gaps G12C): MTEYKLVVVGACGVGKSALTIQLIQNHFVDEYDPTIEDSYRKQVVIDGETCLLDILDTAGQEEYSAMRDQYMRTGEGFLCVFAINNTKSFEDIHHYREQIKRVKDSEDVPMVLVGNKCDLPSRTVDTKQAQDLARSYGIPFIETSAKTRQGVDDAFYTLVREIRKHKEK
- Sequence (P62937 whole entry): as the sequence (P62937 whole entry) above
- assay-protocol: Ras-Raf (BRAF RBD) disruption / FRET / MOA assay, KRAS G12C
- Format: biochemical
- experimental-parameters: KRAS G12C; Ras-Raf disruption/FRET/MOA assay; read-out: IC50* KRAS G12C FRET data
measurement-type: IC50

Answered cases to consult:
compound: C=CC(=O)N1C[C@@H](F)[C@](F)(C(=O)N(C)[C@H](C(=O)N[C@H]2Cc3cccc(c3)-c3ccc4c(c3)c(c(-c3cccnc3[C@H](C)OC)n4CC)CC(C)(C)COC(=O)[C@@H]3CCCN(N3)C2=O)C(C)C)C1 (atropisomer, axis not shown) [Example A396]
IC50: 10 to 100 nM
--
compound: C=CC(=O)N1C[C@@H](C)[C@H](N(C)C(=O)N(C)[C@H](C(=O)N[C@H]2Cc3nc(cs3)-c3ccc4c(c3)c(c(-c3cccnc3[C@H](C)OC)n4CC)CC(C)(C)COC(=O)[C@@H]3CCCN(N3)C2=O)C(C)C)C1 (atropisomer, axis not shown) [Example A588]
IC50: 100 to 1000 nM
--
compound: C=CC(=O)N1CC[C@H](C(=O)N(C)[C@H](C(=O)N[C@H]2Cc3cccc(c3)-c3ccc4c(c3)c(c(-c3cccnc3[C@H](C)OC)n4CC#N)CC(C)(C)COC(=O)[C@@H]3CCCN(N3)C2=O)C(C)C)C1 [Example A510]
IC50: 10 to 100 nM

Please look at the following compound next.
Field request: IC50 | item: C/C=C/C(=O)N1CC2(CCN(C(=O)N(C)[C@H](C(=O)N[C@H]3Cc4nc(cs4)-c4ccc5c(c4)c(c(-c4cccnc4[C@H](C)OC)n5CC)CC(C)(C)COC(=O)[C@@H]4CCCN(N4)C3=O)C(C)C)CC2)C1 (atropisomer, axis not shown) [Example A671]
10 to 100 nM
